Task for the reader: assign each of the following compounds its reported inhibition at 0.24 µg/mL.
Molecular target: rat hepatic microsomal HMG CoA reductase (Rattus norvegicus, UniProt P51639)
Construct: rat hepatic microsomal HMG CoA reductase activity in vitro; from tissue; host or cells: rat liver microsomes
Sequence (P51639 1-887): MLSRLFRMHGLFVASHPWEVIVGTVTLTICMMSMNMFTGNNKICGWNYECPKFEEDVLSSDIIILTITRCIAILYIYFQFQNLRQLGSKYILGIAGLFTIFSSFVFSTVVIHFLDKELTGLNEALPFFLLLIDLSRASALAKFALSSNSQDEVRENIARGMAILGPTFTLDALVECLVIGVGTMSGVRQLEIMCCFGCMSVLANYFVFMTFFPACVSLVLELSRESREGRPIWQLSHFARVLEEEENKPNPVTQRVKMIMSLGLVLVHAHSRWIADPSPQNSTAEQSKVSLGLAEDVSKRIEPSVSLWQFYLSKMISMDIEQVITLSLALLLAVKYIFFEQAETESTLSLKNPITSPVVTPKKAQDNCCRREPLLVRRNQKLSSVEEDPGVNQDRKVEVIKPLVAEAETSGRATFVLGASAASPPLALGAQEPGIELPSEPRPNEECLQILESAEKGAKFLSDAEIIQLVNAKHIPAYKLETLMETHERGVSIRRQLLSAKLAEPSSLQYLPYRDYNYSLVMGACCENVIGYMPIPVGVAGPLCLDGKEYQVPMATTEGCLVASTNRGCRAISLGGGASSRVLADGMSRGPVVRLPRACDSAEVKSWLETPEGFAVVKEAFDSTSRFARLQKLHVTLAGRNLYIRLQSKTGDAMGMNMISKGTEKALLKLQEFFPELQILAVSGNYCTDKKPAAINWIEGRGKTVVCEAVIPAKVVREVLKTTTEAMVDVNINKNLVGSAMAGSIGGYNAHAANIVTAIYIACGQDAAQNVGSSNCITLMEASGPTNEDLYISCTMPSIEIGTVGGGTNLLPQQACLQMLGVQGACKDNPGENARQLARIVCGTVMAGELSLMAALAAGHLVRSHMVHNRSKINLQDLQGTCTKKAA
Assay: inhibition in rat hepatic microsomal HMG CoA reductase activity in vitro (Table I)
Type: biochemical
Conditions: 0.24 micrograms/ml
Give bare numbers, in %.

A selection of reference data follows.
compound	test-system	quantity-unit	reported-value
CCc1c(/C=C/C(O)CC(O)CC(=O)O)c(-c2ccc(F)cc2)c2c3ccccc3ccn12 (centres unmarked)	rat hepatic microsomal HMG CoA reductase (Rattus norvegicus, UniProt P51639)	%	46
CC(C)c1c(/C=C/[C@@H](O)C[C@@H](O)CC(=O)O)c(-c2ccc(F)cc2)c2c3ccccc3ccn12 (relative stereo)	rat hepatic microsomal HMG CoA reductase (Rattus norvegicus, UniProt P51639)	%	74
CCOC(=O)CC(O)CC(O)/C=C/c1c(-c2ccccc2)c2c3ccccc3ccn2c1C (centres unmarked)	rat hepatic microsomal HMG CoA reductase (Rattus norvegicus, UniProt P51639)	%	26
CC(C)c1c(/C=C/C(=O)CC(O)CC(=O)O)c(-c2ccc(F)cc2)c2c3ccccc3ccn12 (centres unmarked)	rat hepatic microsomal HMG CoA reductase (Rattus norvegicus, UniProt P51639)	%	22

Moving on to the next compound.
stdin: GET inhibition at 0.24 µg/mL | system: rat hepatic microsomal HMG CoA reductase (Rattus norvegicus, UniProt P51639) | item: CC(C)c1c(/C=C/C(O)CC(O)CC(=O)O)c(-c2ccc(F)cc2)c2c3ccccc3ccn12 (centres unmarked)
stdout: 69

These measurements were taken from patent US4933350A.
